meta.source: paper PMC11850406

Target: HLA-A3001 (Homo sapiens, UniProt P04439, D140H/D185E/E176W/F33S/G80R/H175R/K168Q/R138E/R41S)
Construct: expressed in transfected cells; host or cells: HMy2.CIR
Method description: cell-based
Type: binding
Assay setup: A3001; peptide 15 μM vs FITC-labeled reference peptide 300 nM, 24 h, 4°C, flow cytometry
This listing pairs sequences with measured 15-μM inhibition (%).
Readout: 15-μM inhibition (%)

[
  {
    "Sequence chain": "RLRGFILVA [Peptide P92]",
    "Endpoint value": 39.48
  },
  {
    "Sequence chain": "KVYLSWVPA [Peptide P94]",
    "Endpoint value": 45.93
  },
  {
    "Sequence chain": "KVVPRRKAK [Peptide P93]",
    "Endpoint value": 41.10
  },
  {
    "Sequence chain": "RLRPGGRKK [Peptide P89]",
    "Endpoint value": 39.48
  }
]
